Test system: MCF7
Assay: Selectivity ratio of IC50 for human CCL186 cells to IC50 for human MCF7 cells
Assay type: functional
recorded.metric: Ratio IC50

Identify measured Ratio IC50 associated with COc1cc(OC)c(C2CCN(C)CC2)c(O)c1C(=O)/C=C/c1ccc(N(C)C)cc1 0.6

Please report Ratio IC50 for the following compound: COc1ccc(/C=C/C(=O)c2c(OC)cc(OC)c(C3CCN(C)CC3)c2O)cc1 0.4

Using the record for COc1cc(OC)c(C2CCN(C)CC2)c(O)c1C(=O)/C=C/c1ccc(C(F)(F)F)cc1 , state its measured Ratio IC50. 1.3

Give Ratio IC50 for COc1ccc(/C=C/C(=O)c2c(OC)cc(OC)c(C3CCN(C)CC3)c2O)c(OC)c1 0.4
